B1: TSPAN10 (parent)
chain: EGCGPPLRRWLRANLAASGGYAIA

Variants of: B1
procedure.text: protein stability index of a GFP-peptide fusion (GPS, HEK-293T) (PSI 1-6); higher = more stable;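 note: lentivirally expressed fusions sorted by FACS into six bins by GFP to DsRed ratio, PSI derived from sequencing read proportions per bin multiplied by bin number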
condition.notes: c terminus: a fixed tail appended
# protein stability index per record follows

item.sequence | protein stability index
EGCGPELRRWLRANLAASGGYAIA [P6E] | 1.48
EGCGPPLRRWLRANLAASGGYLIA [A22L] | 2.06
EGCGPPLRRWLRAKLAASGGYAIA [N14K] | 2.81
EGCGPPLRRWLRANLAFSGGYAIA [A17F] | 1.35
